Listed sequences paired with reported protein stability index
- Assay details: protein stability index of a GFP-peptide fusion (yeast GPS) (PSI 1-4); higher = more stable; sorted into four equal gates, so the index is relative within each strain
- Measurement conditions: pdr5∆
Reported property: protein stability index

>>> print(df.to_string())
                    monomer_sequence  recorded_result
 0          GKIDEAADILCELQVET [RPN5]             3.25
 1          LVRDSKPSKPFNVDDVL [MED8]             2.57
 2  EPKKDKESIVLPTVGFD [YOR098C/NUP1]             3.43
 3  VLPIFTTVFFSRQKSGL [YML031W/NDC1]             1.24
 4          IFKIVQSRLMSTSYHLN [MED6]             2.23
 5  QTLSEKEYQCSAVIIDE [YIL149C/MLP2]             3.03
 6          DEEELGQRTAYHSKRDA [RPB2]              2.9
 7        TKTPGPGGQAALRALAR [RPS14A]             2.27
 8          ELTQVPSARQKYMVKGG [UBP6]             2.83
 9          KPSKPFNVDDVLKFTFT [MED8]             2.83
10          HSVQETNKISPKDFSPN [SSN2]             2.68
11          NTKEIAVDLEHHDYRSY [RRP6]             3.07
12          SMKYDNGVIIAADNLGS [PRE4]             3.35
13        IRGAVGNSEAIPGLSAG [RTT102]             3.36
14          RMIPPRMVRSIMWQLLD [SSN3]             1.68
15          FIPHGLKRRQVIEQCYL [SRB8]             2.63
16          QLVTREAQIKDWVENEL [FAS2]             3.19
17          QFNAQGVRDINCVNDVL [POP1]             2.92
18          PDGTLIASAGKDGEIML [ASC1]             3.26
19          PAHTVIIKGTDVYSPEK [BRR2]             3.19
20         GKIQENIPFWKHVGFEL [SRP72]             2.59
21          SIMAVTFKDGVILGADS [PRE3]             2.61
22        PRGLNSARKLRVHRRNN [RPS23A]             3.06
23          KNMPVIYNNIVSNIEGI [RGR1]             2.69
24         VSVEGVNVEKFNVEYFA [RPL6A]             3.21
25          MHDSNLQNNSDSESDSD [SKP1]             3.18
26         LPQFRSSIQESLLSLVG [ECM29]             2.04
27  ETASFIPTKESLTRDFE [YIL149C/MLP2]             3.09
28          SNTDETKGENYQLVKTL [FAS2]             3.06
29          FEDSMQFKKLTHAQRTG [PRP8]             3.11
30        REKALNEEAEARRLKNR [RPL19A]             3.15
31          TKYSAKYAQDGAGIERE [RPL3]             3.48
32          QKVNAVDSTFQKVSENF [SMC3]             3.28
33          KESDDPSIPLVIIRRLK [POP1]             2.07
34          MSTDVAAAQAQSKIDLT [SEM1]             2.82
35         ASLNLLQLAPGAHLGRF [RPL4A]             3.03
36          NSGIIPGNRNADNVDKI [FAS2]             2.52
37          MVVQKYKLSTVVLRLYL [GRR1]             1.58
38          EETDDEDKQNIEINEDN [RRI2]             3.25
39          TTESSDLKEGLQDLSRY [GRR1]             3.33

----------
- Assay details: protein stability index of a GFP-peptide fusion (yeast GPS) (PSI 1-4); higher = more stable; sorted into four equal gates, so the index is relative within each strain
- Measurement conditions: san1∆
Reported property: protein stability index

>>> print(df.to_string())
                     monomer_sequence  recorded_result
0  NDQDMFTIVSLVQLKKF [YML103C/NUP188]             1.93
1          LHYCVSCAIHARIVRVR [RPS26A]             1.15
2            NNQQRLLLKKLDNFQKS [SMC3]             2.41
3           RNFLETVELQVGLKNYD [RPL1A]              3.1

----------
- Assay details: protein stability index of a GFP-peptide fusion (yeast GPS) (PSI 1-4); higher = more stable; sorted into four equal gates, so the index is relative within each strain
- Measurement conditions: pdr5∆
Measured protein stability index of individual entries
Reported property: protein stability index

             monomer_sequence  recorded_result
0    EHRRYDDQLKQRRQNIR [RPT4]             2.46
1    PRETIPFLHLRKKTPAG [FAS2]             2.43
2    VDSQGLPYNWDALEMQW [ARP7]             2.35
3  KVIKVLGRTGSRGGVTQ [RPS28A]             3.04
4   ISLYLLNLLSQNNTTKF [RPN12]             1.72

----------
- Assay details: protein stability index of a GFP-peptide fusion (yeast GPS) (PSI 1-4); higher = more stable; sorted into four equal gates, so the index is relative within each strain
- Measurement conditions: pdr5∆
I would appreciate it if you labelled entries 1 when protein stability index is 3 or higher, otherwise -1.

>>> print(df.to_string())
                     monomer_sequence  group
0           DFIQNVGRLWDQTFPIN [ECM29]      1
1  ISKQRTFAVILFLIIQC [YMR129W/POM152]     -1
2            ARILARSERKRTKISRG [ITC1]      1
3            YSMISLQNCCIIDVGTH [ARP9]     -1
4            MSEQQWREQLRNRDIAL [ROX3]     -1
5   HYLVLLVAKFLYPIFLL [YJR042W/NUP85]     -1
6            AQQQKRGGFGGRNRGRP [RPS2]      1

----------
- Assay details: protein stability index of a GFP-peptide fusion (yeast GPS) (PSI 1-4); higher = more stable; sorted into four equal gates, so the index is relative within each strain
- Measurement conditions: pdr5∆
Each item that follows carries a reported protein stability index.
Reported property: protein stability index

>>> df
           monomer_sequence  recorded_result
0  KPYDINVVLVTNDRLNR [DIS3]             2.92
1  VLTAAGVERLIFYPDEY [PRE3]             2.94
2  DNDIMNLGSRTKNNTQA [SSN3]             2.92
3  TRVHQLMLEDAVTEREV [MCD1]             2.92

----------
- Assay details: protein stability index of a GFP-peptide fusion (yeast GPS) (PSI 1-4); higher = more stable; sorted into four equal gates, so the index is relative within each strain
- Measurement conditions: ubr1∆
Reported property: protein stability index

In [3]: df
Out[3]:
                     monomer_sequence  recorded_result
0  LLVNPDIDLETYSFIDN [YML103C/NUP188]              2.6
1            DGSAIEDDDIRSRMLPT [SNF5]             3.34
2  TFSVYHESTSRTDQYTI [YMR129W/POM152]             2.62
3           PNFLGNCNIKDFKPPYI [SWP82]             2.65
4           NQQQPPQDILSKLYLLL [SNF11]             2.54
5           SDSLDIAQGIDLVRDID [SRP72]             3.26
6    ELTKTKSSLYSAQDLLD [YIL149C/MLP2]             2.83
